Quick reference for apparent KD of MS2 coat protein among some sequences
- Tested on: MS2 coat protein
- RUN_DESCRIPTION: apparent KD of MS2 coat protein; designed switch direction (-1 OFF switch, 1 ON switch): -1; higher = weaker reporter binding
- CONDITIONS: input ligand: FMN 200 uM
Output spec: scalar in nM, unitless text.

# RESIDUE_CODES, apparent KD of MS2 coat protein (nM)
measured = [
    ("AACGUCUAGGUAGGAUAUCCACCAACAGGUGGAAGGAUAUGUUCGCAGAAGGUUCGCCAACAGGCGGAGAAGGACCUACGCGUA [pwkr exNG2 2xF7 2xFMN.31] (Eterna round: R96, puzzle: Exclusion NG 2)", 11.1),
]

Shift focus to the following entry.
Tell me apparent KD of MS2 coat protein reported for UAUUAGGGAGGAUAUCGCAGUUGCAACAUGAGGAUCACCCAUGUGAACAGCCUCACCAAUCGAGAAGGCCUGAGUG [Eternabot (L2) Solution 59] (Eterna round: R97, puzzle: Exclusion 5)
71
